Quick reference for GI50 at 72 h among some compounds
# Procedure Text: in vitro
# Condition Description: human, BJ cells
Please give a number only; it is taken to be in µM.

NCCCCCNc1nc(Nc2ccc(CN3CCOCC3)cc2)c2ncn(C3CCCC3)c2n1 :: 11.2

Need GI50 at 72 h, item `N[C@H]1CC[C@H](Nc2nc(Nc3ccc(Br)cc3)c3ncn(C4CCCC4)c3n2)CC1`
14.7

Need GI50 at 72 h, item `N[C@H]1CC[C@H](Nc2nc(Nc3ccc(N4CCCC4)cc3)c3ncn(C4CCCC4)c3n2)CC1`
15.9

###

# Test System: Receptor-type tyrosine-protein kinase FLT3 (Homo sapiens, UniProt P36888, ITD)
# Procedure Text: biochemical
# Description: Inhibition of N-terminal GST/His6-fused recombinant human FLT3 (R571 to S993 residues) ITD mutant expressed in Sf9 insect cells using poly (Ala,Glu,Lys,Tyr) 6:2:5:1 hydrobromide as substrate in presence of [gamma-33P]ATP
Mark Criterion met only when IC50 stays strictly below 10 nM. Values equal to the cut-off are Criterion not met.

CC(O)CNc1nc(Nc2ccc(Br)cc2)c2ncn(C3CCCCO3)c2n1 (stereo not drawn) :: Criterion not met
N[C@H]1CC[C@H](Nc2nc(Nc3ccc(CN4CCOCC4)cc3)c3ncn(C4CCCC4)c3n2)CC1 :: Criterion met
CC(O)CNc1nc(Nc2ccc(Br)cc2)c2ncn(C(C)C)c2n1 (stereo not drawn) :: Criterion not met
N[C@H]1CC[C@H](Nc2nc(Nc3ccc(Br)cc3)c3ncn(C4CCCC4)c3n2)CC1 :: Criterion met
NCCCCCNc1nc(Nc2ccc(CN3CCOCC3)cc2)c2ncn(C3CCCC3)c2n1 :: Criterion met

Determine if `NCCCCNc1nc(Nc2ccc(CN3CCOCC3)cc2)c2ncn(C3CCCC3)c2n1` shows IC50 strictly lower than 10 nM.
Criterion met

Determine if CC(O)CNc1nc(Nc2ccc(Br)cc2)c2ncn(C3CCCC3)c2n1 (stereo not drawn) shows IC50 strictly lower than 10 nM.
Criterion not met

###

Quick reference for IC50 among some molecules
# Test System: Receptor-type tyrosine-protein kinase FLT3 (Homo sapiens, UniProt P36888, D835Y)
# Procedure Text: biochemical
# Description: Inhibition of N-terminal GST/His6-fused recombinant human FLT3 (R571 to S993 residues) D835Y mutant expressed in Sf9 insect cells using poly (Ala,Glu,Lys,Tyr) 6:2:5:1 hydrobromide as substrate in presence of [gamma-33P]ATP
Please give a number only; it is taken to be in nM.

NCCCCNc1nc(Nc2ccc(CN3CCOCC3)cc2)c2ncn(C3CCCC3)c2n1 :: 5
c1ccc(CNc2nc(Nc3ccc(CN4CCOCC4)cc3)c3ncn(C4CCCC4)c3n2)cc1 :: 624

Need IC50, item `N[C@H]1CC[C@H](Nc2nc(Nc3ccc(Br)cc3)c3ncn(C4CCCC4)c3n2)CC1`
4

###

# Test System: Receptor-type tyrosine-protein kinase FLT3 (Homo sapiens, UniProt P36888, ITD)
# Procedure Text: biochemical
Observation Type: pIC50
In simple prose, pIC50 is minus the logarithm base ten of a concentration in moles per litre.

Some entries whose results are on file:
CCN1CCN(c2ccc(Nc3nc(NCCCCN)nc4c3ncn4C3CCCC3)cc2)CC1 :: 9.00
c1ccc(CNc2nc(Nc3ccc(CN4CCOCC4)cc3)c3ncn(C4CCCC4)c3n2)cc1 :: 7.59
NCCCCCCNc1nc(Nc2ccc(CN3CCOCC3)cc2)c2ncn(C3CCCC3)c2n1 :: 8.00
OCCNc1nc(Nc2ccc(CN3CCOCC3)cc2)c2ncn(C3CCCC3)c2n1 :: 7.54
C[C@@H](CO)CNc1nc(Nc2ccc(Br)cc2)c2ncn(C3CCCC3)c2n1 :: 6.55

Need pIC50, item `CCN1CCN(c2ccc(Nc3nc(N[C@H]4CC[C@H](N)CC4)nc4c3ncn4C3CCCC3)cc2)CC1`
8.52

Need pIC50, item `c1cc(Nc2nc(N3CCCCC3)nc3c2ncn3C2CCCC2)ccc1CN1CCOCC1`
7.30

Need pIC50, item `N[C@H]1CC[C@H](Nc2nc(Nc3ccc(N4CCOCC4)nc3)c3ncn(C4CCCC4)c3n2)CC1`
8.40

Need pIC50, item CC(O)CNc1nc(Nc2ccc(Cl)cc2)c2ncn(C3CCCC3)c2n1 (centres undefined)
5.76

###

# Procedure Text: in vitro
# Condition Description: human, HUVEC
Quick reference for GI50 at 72 h among some compounds
Give the value; after it, write the unit.

Some entries whose results are on file:
N[C@H]1CC[C@H](Nc2nc(Nc3ccc(N4CC5(COC5)C4)cc3)c3ncn(C4CCCC4)c3n2)CC1 :: 5.95 µM
NCCCCCCNc1nc(Nc2ccc(CN3CCOCC3)cc2)c2ncn(C3CCCC3)c2n1 :: 10.3 µM

Turning now to a further record.
Need GI50 at 72 h, item `N[C@H]1CC[C@H](Nc2nc(Nc3ccc(Br)cc3)c3ncn(C4CCCC4)c3n2)CC1`
10.1 µM

###

# Procedure Text: in vitro
# Condition Description: human, MRC5 cells
Mark yes (1) only when GI50 at 72 h stays strictly below 10 µM. Values equal to the cut-off are no (0).

Answered examples (4):
NCCCCNc1nc(Nc2ccc(N3CCOCC3)cc2)c2ncn(C3CCCC3)c2n1 :: yes (1)
N[C@H]1CC[C@H](Nc2nc(Nc3ccc(Br)cc3)c3ncn(C4CCCC4)c3n2)CC1 :: no (0)
N[C@H]1CC[C@H](Nc2nc(Nc3ccc(N4CCOCC4)cc3)c3ncn(C4CCCC4)c3n2)CC1 :: no (0)
CCN1CCN(c2ccc(Nc3nc(NCCCCN)nc4c3ncn4C3CCCC3)cc2)CC1 :: no (0)

We now examine a further molecule.
Determine if `NCCCCCCNc1nc(Nc2ccc(CN3CCOCC3)cc2)c2ncn(C3CCCC3)c2n1` shows GI50 at 72 h strictly lower than 10 µM.
yes (1)

###

Quick reference for pIC50 among some compounds
# Test System: Receptor-type tyrosine-protein kinase FLT3 (Homo sapiens, UniProt P36888)
# Procedure Text: biochemical
# Description: Inhibition of N-terminal GST/His6-fused recombinant wild type human FLT3 (R571 to S993 residues) expressed in Sf9 insect cells using poly (Ala,Glu,Lys,Tyr) 6:2:5:1 hydrobromide as substrate in presence of [gamma-33P]ATP
In simple prose, pIC50 is minus the logarithm base ten of a concentration in moles per litre.

Some entries whose results are on file:
N[C@H]1CC[C@H](Nc2nc(Nc3ccc(N4CC5(COC5)C4)cc3)c3ncn(C4CCCC4)c3n2)CC1 :: 7.89
N[C@H]1CC[C@H](Nc2nc(Nc3ccc(CN4CCOCC4)cc3)c3ncn(C4CCCC4)c3n2)CC1 :: 7.89
N[C@H]1CC[C@H](Nc2nc(Nc3ccc(Br)cc3)c3ncn(C4CCCC4)c3n2)CC1 :: 7.80
N[C@H]1CC[C@H](Nc2nc(Nc3ccc(N4CCCC4)cc3)c3ncn(C4CCCC4)c3n2)CC1 :: 7.68
CCN1CCN(c2ccc(Nc3nc(N[C@H]4CC[C@H](N)CC4)nc4c3ncn4C3CCCC3)cc2)CC1 :: 8.00
N[C@H]1CC[C@H](Nc2nc(Nc3ccc(N4CCOCC4)cc3)c3ncn(C4CCCC4)c3n2)CC1 :: 7.68

Turning now to a further record.
Need pIC50, item `c1ccc(CNc2nc(Nc3ccc(CN4CCOCC4)cc3)c3ncn(C4CCCC4)c3n2)cc1`
7.08

###

Quick reference for IC50 among some compounds
# Test System: Receptor-type tyrosine-protein kinase FLT3 (Homo sapiens, UniProt P36888, ITD)
# Procedure Text: biochemical
Please give a number only; it is taken to be in nM.

Need IC50, item Brc1ccc(Nc2nc(N3CCOCC3)nc3c2ncn3C2CCCCO2)cc1 (centres undefined)
1200

Need IC50, item `N[C@H]1CC[C@H](Nc2nc(Nc3ccc(N4CC5(COC5)C4)cc3)c3ncn(C4CCCC4)c3n2)CC1`
4

Need IC50, item `c1cc(N2CCOCC2)ncc1Nc1nc(N2CCOCC2)nc2c1ncn2C1CCCC1`
71

Need IC50, item `OCCCCNc1nc(Nc2ccc(CN3CCOCC3)cc2)c2ncn(C3CCCC3)c2n1`
18

Need IC50, item `c1cc(Nc2nc(N3CCOCC3)nc3c2ncn3C2CCCC2)ccc1CN1CCOCC1`
19

Need IC50, item CN1CCN(c2nc(Nc3ccc(Br)cc3)c3ncn(C4CCCCO4)c3n2)CC1 (centres undefined)
4210

###

# Procedure Text: in vitro
# Condition Description: human, BJ cells
Quick reference for GI50 at 72 h among some molecules
Please give a number only; it is taken to be in µM.

Some entries whose results are on file:
NCCCCNc1nc(Nc2ccc(CN3CCOCC3)cc2)c2ncn(C3CCCC3)c2n1 :: 10.4
N[C@H]1CC[C@H](Nc2nc(Nc3ccc(CN4CCOCC4)cc3)c3ncn(C4CCCC4)c3n2)CC1 :: 12.7
NCCCCNc1nc(Nc2ccc(N3CCOCC3)cc2)c2ncn(C3CCCC3)c2n1 :: 13
CCN1CCN(c2ccc(Nc3nc(N[C@H]4CC[C@H](N)CC4)nc4c3ncn4C3CCCC3)cc2)CC1 :: 12.9
N[C@H]1CC[C@H](Nc2nc(Nc3ccc(N4CCOCC4)cc3)c3ncn(C4CCCC4)c3n2)CC1 :: 12.2
NCCCCCCNc1nc(Nc2ccc(CN3CCOCC3)cc2)c2ncn(C3CCCC3)c2n1 :: 7.27

Need GI50 at 72 h, item `N[C@H]1CC[C@H](Nc2nc(Nc3ccc(N4CC5(COC5)C4)cc3)c3ncn(C4CCCC4)c3n2)CC1`
14.6

Need GI50 at 72 h, item `CCN1CCN(c2ccc(Nc3nc(NCCCCN)nc4c3ncn4C3CCCC3)cc2)CC1`
15.4
